FYI, the data here is from patent US10399948B2.

# experimental_system: UniProtKB P31424
# Sequence (P31424 21-1203): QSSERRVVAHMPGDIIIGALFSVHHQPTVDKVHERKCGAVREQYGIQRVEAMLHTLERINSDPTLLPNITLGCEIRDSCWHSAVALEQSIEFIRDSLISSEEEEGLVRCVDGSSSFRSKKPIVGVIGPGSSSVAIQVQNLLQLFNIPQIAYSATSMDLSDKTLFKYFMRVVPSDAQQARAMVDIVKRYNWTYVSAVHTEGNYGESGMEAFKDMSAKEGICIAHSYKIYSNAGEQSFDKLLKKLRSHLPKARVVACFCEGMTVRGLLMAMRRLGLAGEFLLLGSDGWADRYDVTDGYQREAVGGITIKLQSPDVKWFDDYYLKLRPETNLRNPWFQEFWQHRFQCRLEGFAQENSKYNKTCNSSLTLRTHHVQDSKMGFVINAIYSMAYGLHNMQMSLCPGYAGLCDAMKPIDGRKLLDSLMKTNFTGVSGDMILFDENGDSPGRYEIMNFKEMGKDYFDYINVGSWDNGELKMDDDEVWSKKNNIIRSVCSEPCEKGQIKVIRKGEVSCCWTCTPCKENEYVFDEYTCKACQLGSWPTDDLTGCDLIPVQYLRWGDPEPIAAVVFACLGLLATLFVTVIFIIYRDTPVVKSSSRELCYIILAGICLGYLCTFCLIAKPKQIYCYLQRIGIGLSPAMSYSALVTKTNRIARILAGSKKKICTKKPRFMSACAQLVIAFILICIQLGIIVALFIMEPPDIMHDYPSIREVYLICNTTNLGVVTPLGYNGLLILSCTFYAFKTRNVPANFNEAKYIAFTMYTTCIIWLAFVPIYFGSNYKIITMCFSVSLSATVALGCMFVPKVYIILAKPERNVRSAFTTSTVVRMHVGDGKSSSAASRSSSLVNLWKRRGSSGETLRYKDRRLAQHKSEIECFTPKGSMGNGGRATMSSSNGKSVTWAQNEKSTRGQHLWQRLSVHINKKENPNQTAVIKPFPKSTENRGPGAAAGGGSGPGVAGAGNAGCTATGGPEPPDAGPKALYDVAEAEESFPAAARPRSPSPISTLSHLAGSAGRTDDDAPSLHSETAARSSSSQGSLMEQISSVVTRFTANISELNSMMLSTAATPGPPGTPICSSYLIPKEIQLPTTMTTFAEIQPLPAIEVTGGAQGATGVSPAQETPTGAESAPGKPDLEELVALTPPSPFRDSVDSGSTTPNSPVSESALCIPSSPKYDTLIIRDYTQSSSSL
# method_summary: mGlu5 Ca2+ flux assay
# Format: cell-based
# applied_conditions: PAM, glutamate EC20; >10,000 = no plateau; >30,000 = no measurable activity; read-out: rat mGlu5 EC50 or IC50
pEC50: −log10 of the molar value.
readout_label: pEC50

// known answers, use as guide
O=c1cc(OCCOc2ccc(Cl)cn2)ccn1-c1ccc(F)cc1 : < 5.00
O=c1cc(OCCOc2ccc(F)nc2)ccn1-c1ccc(F)cc1 : < 5.00

Next:
input: Which pEC50 value is on record for CC(COc1ccccc1)Oc1ccn(-c2ccc(F)cc2)c(=O)c1 (stereo not drawn) ?
output: < 5.00
